Data origin, for the record: patent US8912186B2

# TARGET_UNDER_TEST: PDK1 (Homo sapiens)
# Construct: GST
# ASSAY_COMMENT: cell-free kinase activity assay (ATPgamma[32P], T308tide substrate)
# Assay type: biochemical
# ASSAY_CONTEXT: maximum activation achievable, compared to the basal activity of PDK1; n.e.: no effect
Known max. activation of PDK1 (fold) of a selection of compounds
Provide only the numeric value, understood in fold.

compound=O=C(O)/C=C(/CCc1ccc(Br)cc1)c1ccccc1 target_under_test="PDK1 (Homo sapiens)" endpoint_result=4.1
compound=O=C(O)/C=C(\CCc1ccc(F)cc1)c1ccccc1 target_under_test="PDK1 (Homo sapiens)" endpoint_result=1.3
compound=O=C(O)/C=C(\CCc1ccc2ccccc2c1)c1ccccc1 target_under_test="PDK1 (Homo sapiens)" endpoint_result=3.1
compound=O=C(O)/C=C(\CCc1ccc(Cl)c(Cl)c1)c1ccccc1 target_under_test="PDK1 (Homo sapiens)" endpoint_result=2
compound=O=C(O)/C=C(/CCc1ccc(Cl)cc1Cl)c1ccccc1 target_under_test="PDK1 (Homo sapiens)" endpoint_result=2.2
compound="O=C(O)CC(c1ccccc1)c1cc2cc(Cl)ccc2o1 (stereo not drawn)" target_under_test="PDK1 (Homo sapiens)" endpoint_result=2.9

Query for PDK1 (Homo sapiens): what max. activation of PDK1 (fold) does the record show for O=C(O)/C=C(/CCc1c[nH]c2ccccc12)c1ccccc1 ?
3.7

###

# TARGET_UNDER_TEST: PDK1 (Homo sapiens, UniProt O15530)
# Construct: GST
# Sequence (O15530 1-556): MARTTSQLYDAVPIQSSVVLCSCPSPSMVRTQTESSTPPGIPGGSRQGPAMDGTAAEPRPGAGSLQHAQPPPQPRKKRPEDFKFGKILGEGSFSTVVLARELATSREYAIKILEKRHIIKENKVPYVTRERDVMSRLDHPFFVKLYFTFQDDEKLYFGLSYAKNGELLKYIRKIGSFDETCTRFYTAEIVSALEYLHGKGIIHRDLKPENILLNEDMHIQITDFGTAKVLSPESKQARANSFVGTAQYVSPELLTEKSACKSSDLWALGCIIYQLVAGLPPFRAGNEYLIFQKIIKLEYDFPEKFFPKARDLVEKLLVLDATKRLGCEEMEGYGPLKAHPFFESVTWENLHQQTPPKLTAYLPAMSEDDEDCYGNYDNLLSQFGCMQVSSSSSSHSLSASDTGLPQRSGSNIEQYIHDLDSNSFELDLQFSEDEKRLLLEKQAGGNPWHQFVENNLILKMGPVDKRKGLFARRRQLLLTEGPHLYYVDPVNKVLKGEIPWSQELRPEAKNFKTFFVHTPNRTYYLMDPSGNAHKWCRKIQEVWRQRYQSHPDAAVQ
# ASSAY_COMMENT: cell-free kinase activity assay (ATPgamma[32P], T308tide substrate)
# Assay type: biochemical
# ASSAY_CONTEXT: concentration of the compound required to activate half maximally; n.e.: no effect
PROPERTY_NAME: AC50 (µM)
Answer with a number only, understood to be in µM.

Guide cases for AC50, answers given:
compound="Cc1ccc2oc(C(CC(=O)O)c3ccccc3)cc2c1 (stereo not shown) [PS 120]" endpoint_result=29.1
compound="O=C(O)C=C(c1ccccc1)c1cc2cc(Cl)ccc2o1 (mixture of isomers) [PS 101]" endpoint_result=31.6
compound="O=C(O)/C=C(/CSc1ccc(Cl)cc1)c1ccccc1 [PS 99]" endpoint_result=22.8

Sample O=C(O)/C=C1\c2ccccc2CC1Cc1ccc(Cl)cc1 (stereo not shown) [PS 102] — what was its AC50?
30

Then what about the compound O=C(O)/C=C(\CCc1c[nH]c2ccccc12)c1ccccc1 [PS 158] ?
34.6

Similarly, O=C(O)/C=C(/CCc1c[nH]c2ccccc12)c1ccccc1 [PS 159] ?
9.3
